molecular target: T1, human CD1a expressed on cells (human, UniProt P06126 17-327; P61769 21-119); assay: flow cytometry, C1R cells, 100 µg/ml antibody
T1 construct: also called HEK - CD1a; C1R - CD1a
measurement.name: Fluorescence Intensity Geomean (normalized to background) (fold over background)
Report as a plain number; the unit fold over background is understood.

Supply recorded Fluorescence Intensity Geomean (normalized to background) for 110 (VR12112) (antibody, V domains shown, also called OX110; antibody 110) VH: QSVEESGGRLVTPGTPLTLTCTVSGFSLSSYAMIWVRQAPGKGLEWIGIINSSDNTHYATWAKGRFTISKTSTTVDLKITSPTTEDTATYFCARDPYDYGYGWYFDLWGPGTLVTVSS VL: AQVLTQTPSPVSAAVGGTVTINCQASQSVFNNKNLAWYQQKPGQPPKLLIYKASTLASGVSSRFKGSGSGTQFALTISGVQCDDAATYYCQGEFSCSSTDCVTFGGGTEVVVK here.
4.8
